Recorded Human IL-21R-TF1 Proliferation IC50 values for a group of binders are listed next.
# System Under Test: human IL-21R expressed on cells (human, UniProt Q9HBE5 20-538)
# Sequence (Q9HBE5 20-538 limits assumed): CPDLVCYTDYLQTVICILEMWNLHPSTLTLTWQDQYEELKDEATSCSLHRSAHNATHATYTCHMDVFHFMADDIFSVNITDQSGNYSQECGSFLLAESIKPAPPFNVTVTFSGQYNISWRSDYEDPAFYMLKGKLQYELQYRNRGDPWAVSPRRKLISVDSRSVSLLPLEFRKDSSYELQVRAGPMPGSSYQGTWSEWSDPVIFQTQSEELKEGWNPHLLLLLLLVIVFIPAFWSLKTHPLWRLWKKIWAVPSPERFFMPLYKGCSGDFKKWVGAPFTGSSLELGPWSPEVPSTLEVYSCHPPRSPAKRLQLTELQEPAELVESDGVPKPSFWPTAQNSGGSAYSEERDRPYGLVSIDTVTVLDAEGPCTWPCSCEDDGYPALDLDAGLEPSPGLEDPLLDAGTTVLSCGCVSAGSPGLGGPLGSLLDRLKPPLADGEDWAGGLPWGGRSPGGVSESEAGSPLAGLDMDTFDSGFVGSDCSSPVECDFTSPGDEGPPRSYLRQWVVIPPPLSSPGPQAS
# Measurement Protocol: cell-based or functional assay

- Binder: "AbF (antibody, human IgG1, V domains shown, Full-length human IgG1 / human lambda, transient, conditioned medium; Framework limits derived; also called VHP/VL17) VH: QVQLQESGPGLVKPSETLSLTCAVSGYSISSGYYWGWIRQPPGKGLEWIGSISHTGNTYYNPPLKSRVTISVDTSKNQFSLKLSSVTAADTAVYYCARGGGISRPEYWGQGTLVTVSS VL: SSELTQDPAVSVALGQTVRITCQGDSLRTYYASWYQQKPGQAPVLVIYGKHKRPSGIPDRFSGSSSGNTASLTITGAQAEDEADYYCSTRSRKGNPHVLFGGGTQLTVL"
  Human IL-21R-TF1 Proliferation IC50: "2.41 nM"
- Binder: "AbJ (antibody, human IgG1, V domains shown, Full-length human IgG1 / human lambda, transient, conditioned medium; Framework limits derived; also called VH3/VLP) VH: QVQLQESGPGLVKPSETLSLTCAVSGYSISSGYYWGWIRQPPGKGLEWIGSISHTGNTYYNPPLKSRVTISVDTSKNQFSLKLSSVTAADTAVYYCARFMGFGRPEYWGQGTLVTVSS VL: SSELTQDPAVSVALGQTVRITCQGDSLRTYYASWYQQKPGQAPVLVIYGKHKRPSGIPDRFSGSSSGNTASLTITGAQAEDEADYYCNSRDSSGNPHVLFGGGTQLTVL"
  Human IL-21R-TF1 Proliferation IC50: "4.6 nM"
- Binder: "AbB (antibody, human IgG1, V domains shown, Full-length human IgG1 / human lambda, transient, conditioned medium; Framework limits derived; also called VHP/VL3) VH: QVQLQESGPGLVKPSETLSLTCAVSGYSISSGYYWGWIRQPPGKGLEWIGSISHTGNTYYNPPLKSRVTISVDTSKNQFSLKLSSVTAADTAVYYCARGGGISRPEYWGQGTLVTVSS VL: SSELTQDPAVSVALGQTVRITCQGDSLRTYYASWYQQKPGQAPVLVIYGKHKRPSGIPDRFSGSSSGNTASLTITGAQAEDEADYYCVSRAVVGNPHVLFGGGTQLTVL"
  Human IL-21R-TF1 Proliferation IC50: "3.34 nM"
